Value source: patent US11690902B2

Tested on: human PBMCs of individuals naturally exposed to C. burnetii
Assay type: cell-based
# key: entry, value: Donors recognizing peptides recognized solely by past asymptomatic subjects
PROPERTY NAME: Donors recognizing peptides recognized solely by past asymptomatic subjects

| CHAIN SEQUENCE | OBSERVED VALUE |
| --- | --- |
| VARVSRLKDNFVVLEISKGTEITVQ [p29] | 1/33 |
| DHAYKLAVSSTKSMT [p42] | 3/33 |
| DGRLEQLNSQNQQLQ [p33] | 1/33 |
| FTFRSQDSRRVQEW [p13] | 1/33 |
| ISLLVFKNSHRVQLWAK [p28] | 1/33 |
| SDMWQALLAGKSGVK [p25] | 3/33 |
| NAGIIRNKLKIQATIN [p43] | 3/33 |
